Source: ChEMBL document CHEMBL3046402

Tested on: Mus musculus
Protocol Description: Anticonvulsant activity in Swiss albino Mus musculus (mouse) assessed as latency time of maximal electric shock-induced clonus onset at 35 mg/kg administered 30 min prior to maximal electric shock-challenge (reference value: 3.16 +/- 0.0833 min)
Format: functional
Experimental Endpoint: Time (min)
Answer in min, number only, no unit symbol.

I would be grateful if you could share the reported Time for `CCOC(=O)Nc1nc2ccc(C)cc2s1` .
12.55

Another compound: `CCc1ccc2nc(NC(=O)Oc3ccccc3)sc2c1`
7.59

Record: `CCOC(=O)Nc1nc2ccc(CC)cc2s1`
10.415

How about this compound: `Cc1cccc2sc(NC(=O)Oc3ccccc3)nc12`
9.58

Proceed to `CCOC(=O)Nc1nc2ccc([N+](=O)[O-])cc2s1`
8.37

Try this compound too: `Cc1ccc2nc(NC(=O)Oc3ccccc3)sc2c1`
13.28

Next record, please: `O=C(Nc1nc2ccc([N+](=O)[O-])cc2s1)Oc1ccccc1`
10.34

Follow-up item: `O=C(Nc1nc2ccc(Cl)cc2s1)Oc1ccccc1`
11.2

And for `O=C(Nc1nc2ccccc2s1)Oc1ccccc1` ?
11.47

Let us now turn to `COc1ccc2nc(NC(=O)Oc3ccccc3)sc2c1`
4.675

Follow-up item: `CCOC(=O)Nc1nc2ccc(OC)cc2s1`
9.56

Also `CCOC(=O)Nc1nc2ccccc2s1` ?
11.18

Now this one: `CCOC(=O)Nc1nc2ccc(Cl)cc2s1`
5.4

Field entry: `CCOC(=O)Nc1nc2c(C)cccc2s1`
10.36

* * *

Please go through the items and note down their Activity.
Tested on: Mus musculus
Protocol Description: Anticonvulsant activity in Swiss albino Mus musculus (mouse) assessed protection against PTZ-induced clonic convulsion at 35 mg/kg administered 60 min prior to PTZ-challenge measured up to 30 min relative to control
Assay type: functional
Give the value in % but do not write % after it.

I would be grateful if you could share the reported Activity for `Cc1ccc2nc(NC(=O)Oc3ccccc3)sc2c1` .
100

Likewise for `CCOC(=O)Nc1nc2ccc(CC)cc2s1` ?
83.33

Now consider `O=C(Nc1nc2ccc(Cl)cc2s1)Oc1ccccc1` .
66.66

Also, `CCOC(=O)Nc1nc2ccc(Cl)cc2s1` please.
66.66

How about `CCOC(=O)Nc1nc2ccccc2s1` ?
83.33

What do you have for `O=C(Nc1nc2ccccc2s1)Oc1ccccc1` ?
100

Next up: `CCc1ccc2nc(NC(=O)Oc3ccccc3)sc2c1`
83.33

* * *

Test system: Mus musculus
Protocol Description: Anticonvulsant activity in Swiss albino Mus musculus (mouse) assessed protection against PTZ-induced clonic convulsion at 35 mg/kg administered 60 min prior to PTZ-challenge measured up to 30 min relative to control
Format: functional
Experimental Endpoint: Activity (%)
Answer in %, number only, no unit symbol.

Dear colleague, I am looking for the recorded Activity of the following molecule: `CCOC(=O)Nc1nc2c(C)cccc2s1`
83.33

For `CCOC(=O)Nc1nc2ccc(C)cc2s1` then?
100

Request: `COc1ccc2nc(NC(=O)Oc3ccccc3)sc2c1`
66.66

And `CCOC(=O)Nc1nc2ccc(OC)cc2s1` ?
100

One more molecule: `CCOC(=O)Nc1nc2ccc([N+](=O)[O-])cc2s1`
83.33

Please answer likewise for `Cc1cccc2sc(NC(=O)Oc3ccccc3)nc12`
83.33

One more molecule: `O=C(Nc1nc2ccc([N+](=O)[O-])cc2s1)Oc1ccccc1`
100
